- assay_remarks: The anti-HIV-1 activity was assayed in activated human peripheral blood mononuclear (PBM) cells, relative to RVT
- Type: functional
# pEC50 per record follows
Here pEC50 is given on a logarithmic scale as minus log10 of the concentration in mol/L.

compound="Cc1cn([C@H]2C[C@H](N=[N+]=[N-])[C@@H](CO)O2)c(=O)[nH]c1=O [ZIDOVUDINE]" val=8.70

# next compound below
Enquiry: Given the entry Nc1nc(=O)n([C@@H]2C=C[C@H](CO)O2)cc1F [ELVUCITABINE] , report its measured pEC50.
Return: 7.17

====

# half-life per record follows
- assay_remarks: Estimated half-life at 20 degree C in 0.05 M pH 2 NaH2PO4 buffer
- Format: ADME
- settings: phosphate buffer
Write the answer as a number in min, unit excluded.

compound="Nc1nc(NC2CC2)c2ncn(C3C=CC(CO)O3)c2n1 (centres undefined)" val=41
compound="Nc1nc(=O)n([C@@H]2C=C[C@H](CO)O2)cc1F [ELVUCITABINE]" val=45

# next compound below
Enquiry: Given the entry Cc1cn([C@H]2C=C[C@@H](CO)O2)c(=O)[nH]c1=O [STAVUDINE] , report its measured half-life.
Return: 50000
